Test system: tobacco budworm (Heliothis virescens [Fabricius])
Assay: surface-treated diet test against tobacco budworm
Assay type: in vivo
Conditions: 0.25 millimolar on the surface of the diet; second instar larvae; five-day exposure; compared to the total number of insects infested
test readout: Percent Mortality (%)
The reply should contain only the number, in %.

Some entries whose results are on file:
>  <compound>
OC(c1ccc(OC(F)(F)F)cc1)(c1ccc(OC(F)(F)F)cc1)C1CCN(Cc2ccc(C3OCC4(CC4)CO3)cc2)CC1 [Compound 45]

>  <Percent Mortality [%]>
100

$$$$
>  <compound>
OC(c1ccc(OC(F)(F)F)cc1)(c1ccc(OC(F)(F)F)cc1)C1CCN(Cc2ccc(C3OCC(CN4CCCC4)O3)cc2)CC1 (stereo not drawn) [Compound 108]

>  <Percent Mortality [%]>
33

$$$$
>  <compound>
[O-][N+]1(Cc2ccc(OCC3(c4ccccc4)OCCO3)cc2)CCC(C(O)(c2ccc(OC(F)(F)F)cc2)c2ccc(OC(F)(F)F)cc2)CC1 (stereo not drawn) [Compound 185]

>  <Percent Mortality [%]>
100

$$$$
>  <compound>
OC(c1ccc(OC(F)(F)F)cc1)(c1ccc(OC(F)(F)F)cc1)C1CCN(Cc2ccc(C3OCCO3)c(C(F)(F)F)c2)CC1 [Compound 172]

>  <Percent Mortality [%]>
100

$$$$
>  <compound>
C=CCOCC1COC(c2ccc(C[N+]3([O-])CCC(C(O)(c4ccc(OC(F)(F)F)cc4)c4ccc(OC(F)(F)F)cc4)CC3)cc2)O1 (stereo not drawn) [Compound 93]

>  <Percent Mortality [%]>
100

$$$$

Enquiry: Quick check: Percent Mortality on tobacco budworm (Heliothis virescens [Fabricius]), item [O-][N+]1(Cc2ccc(C3OCCCO3)cc2)CCC(C(O)(c2ccc(OC(F)(F)F)cc2)c2ccc(OC(F)(F)F)cc2)CC1 (stereo not drawn) [Compound 5] ?
Return: 100

Enquiry: Record lookup: for tobacco budworm (Heliothis virescens [Fabricius]), what Percent Mortality belongs to CC1(C)COC(c2ccc(CN3CCC(C(O)(c4ccc(OC(F)(F)F)cc4)c4ccc(OC(F)(F)F)cc4)CC3)cc2)O1 (stereo not drawn) [Compound 111] ?
Return: 100

Enquiry: Field: Percent Mortality (tobacco budworm (Heliothis virescens [Fabricius])). Entry: OC(c1ccc(OC(F)(F)F)cc1)(c1ccc(OC(F)(F)F)cc1)C1CCN(Cc2ccc(C3(Cc4ccccc4)OCCO3)cc2)CC1 [Compound 66]
Return: 67

Enquiry: Param readout = Percent Mortality; param system = tobacco budworm (Heliothis virescens [Fabricius]); param query = COc1ccc(C2(COc3ccc(C[N+]4([O-])CCC(C(O)(c5ccc(OC(F)(F)F)cc5)c5ccc(OC(F)(F)F)cc5)CC4)cc3)OCCO2)cc1 (stereo not drawn) [Compound 191] ; response: value
Return: 100

Enquiry: // map [O-][N+]1(Cc2ccc(C3OCCC(c4ccccc4)O3)cc2)CCC(C(O)(c2ccc(OC(F)(F)F)cc2)c2ccc(OC(F)(F)F)cc2)CC1 (stereo not drawn) [Compound 79] to recorded Percent Mortality (system: tobacco budworm (Heliothis virescens [Fabricius]))
Return: 100

Enquiry: Kindly state the measured Percent Mortality obtained for OC(c1ccc(OC(F)(F)F)cc1)(c1ccc(OC(F)(F)F)cc1)C1CCN(Cc2ccc(OCC3(c4ccccc4)OCCO3)cc2)CC1 [Compound 186] with tobacco budworm (Heliothis virescens [Fabricius]).
Return: 100

Enquiry: What reported Percent Mortality corresponds to CC1(C)OCC(c2ccc(C[N+]3([O-])CCC(C(O)(c4ccc(OC(F)(F)F)cc4)c4ccc(OC(F)(F)F)cc4)CC3)cc2)O1 (stereo not drawn) [Compound 77] on tobacco budworm (Heliothis virescens [Fabricius])?
Return: 100
